Each item that follows carries a reported E. coli Efflux Ratio.
test system: E. coli K12; details: E. coli K12 MIC versus K12 ∆tolC MIC
measurement_name: E. coli Efflux Ratio

CCCCC1CC(O)(CN)C2(O)OC3C(NC)C(O)C(NC)C(O)C3OC2O1 (stereo not drawn) [AmTroSPC (13)] | >2
CCCC[C@@H]1C[C@@H](NC(=O)Cc2ccccn2)[C@]2(O)O[C@@H]3[C@@H](NC)[C@@H](O)[C@@H](NC)[C@H](O)[C@H]3O[C@@H]2O1 [TroSPA (4)] | >2
CN[C@@H]1[C@H](O)[C@H](NC)[C@H]2O[C@@]3(O)C(=O)C[C@@H](C)O[C@H]3O[C@@H]2[C@H]1O [SPC (1), spectinomycin] | 2
CCCCC1CC(O)(CNCCc2ccc(F)cc2)C2(O)OC3C(NC)C(O)C(NC)C(O)C3OC2O1 (stereo not drawn) [eAmTroSPC (8)] | 8–16
CCCCC1CC(O)(CNCc2ccc(F)cc2)C2(O)OC3C(NC)C(O)C(NC)C(O)C3OC2O1 (stereo not drawn) [bAmTroSPC (6)] | 4–8
CCCC[C@@H]1C[C@@H](N)[C@]2(O)O[C@@H]3[C@@H](NC)[C@@H](O)[C@@H](NC)[C@H](O)[C@H]3O[C@@H]2O1 [Amino TroSPC (11)] | >2

====

system: M. smegmatis strain MC^2 155; experiment: MIC broth microdilution, M. smegmatis; type: cell-based, Mycobacterium smegmatis; conditions: Mycolicibacterium smegmatis, MC^2155, 72 h, read-out: WT MIC
# maps each entry to its log10(MIC)
measurement_name: log10(MIC) (log10 of the value in µg/mL)

CCCC[C@@H]1C[C@@H](N)[C@]2(O)O[C@@H]3[C@@H](NC)[C@@H](O)[C@@H](NC)[C@H](O)[C@H]3O[C@@H]2O1 [Amino TroSPC (11)] | 1.51
CCCC[C@@H]1C[C@@H](NC(=O)Cc2ccccn2)[C@]2(O)O[C@@H]3[C@@H](NC)[C@@H](O)[C@@H](NC)[C@H](O)[C@H]3O[C@@H]2O1 [TroSPA (4)] | 1.51
CCCCC1CC(O)(CNCCc2ccc(F)cc2)C2(O)OC3C(NC)C(O)C(NC)C(O)C3OC2O1 (stereo not drawn) [eAmTroSPC (8)] | 0.90
CN[C@@H]1[C@H](O)[C@H](NC)[C@H]2O[C@]3(O)[C@H](O[C@@H]2[C@H]1O)O[C@H](C)C[C@@]3(O)CNCCc1ccc(F)cc1 [eAmSPC (7), reference compound] | 0.60
CCCCC1CC(O)(CN)C2(O)OC3C(NC)C(O)C(NC)C(O)C3OC2O1 (stereo not drawn) [AmTroSPC (13)] | 2.11
CCCCC1CC(O)(CNCc2ccc(F)cc2)C2(O)OC3C(NC)C(O)C(NC)C(O)C3OC2O1 (stereo not drawn) [bAmTroSPC (6)] | 1.81

====

system: E. coli K12; test: microbe, parasite or virus in culture; settings: Escherichia coli, K12, read-out: Minimum Inhibitory Concentration
measurement_name: MIC (µg/mL)

CN[C@@H]1[C@H](O)[C@H](NC)[C@H]2O[C@@]3(O)C(=O)C[C@@H](C)O[C@H]3O[C@@H]2[C@H]1O [SPC (1), spectinomycin] | 128
CCCCC1CC(O)(CNCCc2ccc(F)cc2)C2(O)OC3C(NC)C(O)C(NC)C(O)C3OC2O1 (stereo not shown) [eAmTroSPC (8)] | 64
CCCCC1CC(O)(CNCc2ccc(F)cc2)C2(O)OC3C(NC)C(O)C(NC)C(O)C3OC2O1 (stereo not shown) [bAmTroSPC (6)] | 32

Measured values drawn from paper PMC11347369 for this set.
